Listed here are molecules together with their documented IC50.
# test target: Axl (Homo sapiens, UniProt P30530)
# Construct: endogenous in cells; host or cells: HeLa cells
# Sequence (P30530 26-894): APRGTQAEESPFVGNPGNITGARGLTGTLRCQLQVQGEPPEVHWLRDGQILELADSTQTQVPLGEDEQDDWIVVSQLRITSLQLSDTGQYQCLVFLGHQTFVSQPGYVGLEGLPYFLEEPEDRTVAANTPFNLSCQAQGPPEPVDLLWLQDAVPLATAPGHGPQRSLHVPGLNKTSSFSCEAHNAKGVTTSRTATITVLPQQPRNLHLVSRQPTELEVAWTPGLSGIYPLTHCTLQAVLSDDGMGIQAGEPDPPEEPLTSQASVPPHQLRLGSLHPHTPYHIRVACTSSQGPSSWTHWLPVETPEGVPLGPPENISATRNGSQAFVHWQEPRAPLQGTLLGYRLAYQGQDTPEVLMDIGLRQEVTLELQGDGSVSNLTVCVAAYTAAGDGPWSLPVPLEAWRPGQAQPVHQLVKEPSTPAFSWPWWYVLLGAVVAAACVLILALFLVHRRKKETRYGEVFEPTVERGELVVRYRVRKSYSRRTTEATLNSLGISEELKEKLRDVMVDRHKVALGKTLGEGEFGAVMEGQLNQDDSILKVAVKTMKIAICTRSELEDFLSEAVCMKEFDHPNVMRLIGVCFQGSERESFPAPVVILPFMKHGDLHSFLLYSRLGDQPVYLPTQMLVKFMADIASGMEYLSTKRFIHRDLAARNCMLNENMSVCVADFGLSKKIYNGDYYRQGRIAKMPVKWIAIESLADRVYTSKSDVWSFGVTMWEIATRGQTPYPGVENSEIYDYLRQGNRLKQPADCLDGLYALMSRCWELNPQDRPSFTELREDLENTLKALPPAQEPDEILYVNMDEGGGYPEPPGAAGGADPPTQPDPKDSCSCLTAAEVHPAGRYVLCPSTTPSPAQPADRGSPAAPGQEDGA
# procedure summary: Phospho-Akt in-cell Western assay
# Format: cell-based
# stated conditions: Hela cells, stimulated by Axl-antibody cross-linking, phospho-Akt chemiluminescence; Table 1, formula (Ia)

# count of solved cases: 5
| molecule | IC50 |
| --- | --- |
| Nc1nc(Nc2cccc3c2CCC(N2CCCC2)CC3)nn1-c1cc2c(nn1)-c1ccccc1CCC2 (centres unmarked) | > 20000 nM |
| CCOC(=O)C1CCN(C2CCc3ccc(Nc4nc(N)n(-c5cc6c(nn5)-c5ccccc5CCC6)n4)cc3CC2)CC1 (centres unmarked) | < 1000 nM |
| CC=CCN(CCCC)[C@H]1CCc2ccc(Nc3nc(N)n(-c4cc5c(nn4)-c4ccccc4CCC5)n3)cc2CC1 | < 1000 nM |
| Nc1nc(Nc2ccc3c(c2)CCC(N2CCC[C@@H]2C(=O)O)CC3)nn1-c1cc2c(nn1)-c1ccccc1CCC2 (some centres unmarked) | < 1000 nM |
| CC(C)N[C@H]1CCc2ccc(Nc3nc(N)n(-c4cc5c(nn4)-c4cccnc4CCC5)n3)cc2CC1 | < 1000 nM |

Lab book: IC50 of CCCN[C@H]1CCc2ccc(Nc3nc(N)n(-c4cc5c(nn4)-c4ccccc4CCC5)n3)cc2CC1 noted as < 1000 nM

Lab book: IC50 of Nc1nc(Nc2ccc3c(c2)CC[C@@H](NCc2ccccc2C(=O)O)CC3)nn1-c1cc2c(nn1)-c1ccccc1CCC2 noted as 1000 to 10000 nM
